assay: small-molecule microarray binders of probe aWnt5a, primary screen, biochemical, biotinylated probe, 635/667 nm fluorescence (AID 1113); conditions: higher = more signal;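 further: score merges 667 nm fluorescence intensity with signal-to-noise per printed feature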
If the reported composite z-score equals or exceeds -0.1, assign Y. If not, assign N.

Is composite z-score for C=CCN1Cc2ccccc2C[C@@]2(N=C(c3ccc(OCCCO)cc3)O[C@H]2c2ccccc2)C1=O at or above -0.1? Y

Is composite z-score for COC(=O)[C@@]1(Cc2ccc(OC)cc2)[C@H]2c3cc(C(=O)N(C)C)n(CCc4c[nH]c5ccc(O)cc45)c3C[C@H]2CN1C(=O)c1ccccc1 at or above -0.1? Y

Is composite z-score for O=C1NC(=O)C2C1C=CC(C(O)c1ccc3c(c1)OCO3)N2Nc1ccccn1 (centres undefined) at or above -0.1? Y

Is composite z-score for CC(C)CN1C(=O)[C@@]2(c3ccc([N+](=O)[O-])cc3)CC(=O)N(CC34CC5CC(CC(C5)C3)C4)[C@@H]2c2ccc(CO)cc21 at or above -0.1? N

Is composite z-score for O=C(NC1CC1)[C@@H]1c2ccccc2C(=O)N(Cc2ccccc2)[C@H]1c1ccc(CO)cc1 at or above -0.1? N

Is composite z-score for [N-]=[N+]=Nc1ccccc1C[C@@]1(C(=O)O)N=C(c2ccc(OCCCO)cc2)O[C@@H]1c1ccccc1 at or above -0.1? Y

Is composite z-score for C=CCOC(=O)[C@H]1[C@@H]2C(=O)O[C@@H](c3ccccc3)[C@@H](c3ccccc3)N2[C@@H](c2ccc(OCCOC(=O)[C@H]3C[C@H]4C(=O)N[C@@H](Cc5ccccc5)C(=O)N4[C@H]3c3ccc(O)cc3)cc2)[C@]12C(=O)Nc1ccc(I)cc12 at or above -0.1? Y

Is composite z-score for C=C(COC)/C(=C/C[C@@H](OC(=O)c1ccncc1)c1cccc(OCCO)c1)c1cnc2ccccc2c1 at or above -0.1? Y

Is composite z-score for COCCOC(=O)N1C(=O)[C@@]2(c3cc(C#CCNC(N)=O)ccc31)[C@H](C(=O)N1CCCCCCC1)[C@H]1C(=O)O[C@H](c3ccccc3)[C@H](c3ccccc3)N1[C@@H]2c1ccc(O)cc1 at or above -0.1? N

Is composite z-score for C=C[C@@H](COC(C)=O)NS(=O)(=O)c1ccc(Br)cc1 at or above -0.1? Y

Is composite z-score for CC(C)C[C@@H]1NC(=O)[C@H]2C[C@@H](C(=O)NCCCCCC[N+](C)(C)C)[C@@H](c3cccc(OCCO)c3)N2C1=O at or above -0.1? N

Is composite z-score for C[C@H]1C2=C3C(CC[C@H]4C(OCc5ccc(F)cc5C(F)(F)F)OC[C@](C)([C@@H]34)N(C(=O)OC(C)(C)C)C2)C(CO)C1CO (some centres undefined) at or above -0.1? Y

Is composite z-score for COc1ccc([Si](C)(C)[C@H]2[C@H](CCn3cc([C@H](O)c4ccccc4)nn3)O[C@@]3(C(=O)N(Cc4ccc(N5CCOC5=O)cc4)c4ccccc43)[C@@H]2C)cc1 at or above -0.1? N

Is composite z-score for CC[C@@H]1[C@H]2C3C(=O)N(CC)C(=O)C3CC(=O)[C@H]2[C@H](c2ccc(C)cc2)N1S(=O)(=O)c1ccc(C)cc1 (some centres undefined) at or above -0.1? N
